Test system: Staphylococcus aureus ATCC29213
TEST: Minimum Inhibitory Concentration (MIC) testing, broth microdilution, Staphylococcus aureus
Format: cell-based
EXPERIMENTAL_SETUP: Staphylococcus aureus ATCC29213; read-out: Staphylococcus aureus MICs Activity
QUANTITY_MEASURED: MIC

Could you tell me MIC for each of these compounds? They are listed below.
1. NC(=O)c1c(F)ccc(OCc2nccs2)c1F
2. NC(=O)c1c(F)ccc(OCc2ccc3c(Br)cccc3n2)c1F
3. CCCCCCCCCOc1ccc(Cl)c(C(N)=O)c1F
4. CCCCCCOC(=O)COc1ccc(F)c(C(N)=O)c1F

Resp:
16 to 64 µg/mL
16 to 64 µg/mL
< 8 µg/mL
< 8 µg/mL

Could you tell me MIC for each of these compounds? They are listed below.
1. Cc1cccc(COc2ccc(F)c(C(N)=O)c2F)c1
2. NC(=O)c1c(F)ccc(OCc2nc(-c3c(Cl)cccc3Cl)no2)c1F
3. C#CCCCCCCCCCCOc1cccc(C(N)=O)c1 [Example 66, 3-(11-Dodecynyloxy)benzenecarboxamide]
4. NC(=O)c1c(F)ccc(OCc2nc(-c3ccc(F)cc3)cs2)c1F
5. Cc1ccc2nc(COc3ccc(F)c(C(N)=O)c3F)oc2c1
6. NC(=O)c1c(F)ccc(OCc2cc3ccccc3s2)c1F

Resp:
1. 16 to 64 µg/mL
2. < 8 µg/mL
3. < 8 µg/mL
4. < 8 µg/mL
5. 16 to 64 µg/mL
6. > 64 µg/mL

----------
Test system: Staphylococcus aureus ATCC29213
TEST: Minimum Inhibitory Concentration (MIC) testing, broth microdilution, Staphylococcus aureus
Assay type: cell-based
EXPERIMENTAL_SETUP: Staphylococcus aureus ATCC29213; read-out: Staphylococcus aureus MICs Activity
QUANTITY_MEASURED: MIC

Check out these entries, answers already filled in.
NC(=O)c1c(F)ccc(OCc2nc3cc(-c4ccccc4O)ccc3s2)c1F    < 8 µg/mL
CCCCCCCCCOc1cccc(C(N)=O)c1F [Example 175, 2-Fluoro-3-(nonyloxy)benzenecarboxamide]    < 8 µg/mL
NC(=O)c1c(F)ccc(OCc2nc(-c3ccccc3)co2)c1F    16 to 64 µg/mL
NC(=O)c1c(F)ccc(OCc2ccsc2)c1F    16 to 64 µg/mL

Consider the additional compound presented here.
Req: Consider the compound shown here: NC(=O)c1c(F)ccc(OCc2nc(Cc3ccc(Cl)cc3)no2)c1F What is its recorded MIC?
Resp: 16 to 64 µg/mL

----------
Field: MIC. Provide a value for each of the compounds that follow.
Test system: Staphylococcus aureus ATCC29213
TEST: Minimum Inhibitory Concentration (MIC) testing, broth microdilution, Staphylococcus aureus
Type: cell-based
EXPERIMENTAL_SETUP: Staphylococcus aureus ATCC29213; read-out: Staphylococcus aureus MICs Activity

Could you tell me MIC for each of these compounds? They are listed below.
1. NC(=O)c1c(F)ccc(OCc2nc3ccc(OC(F)(F)F)cc3s2)c1F
2. NC(=O)c1c(F)ccc(OCc2csc(-c3ccc(O)cc3)n2)c1F
3. NC(=O)c1c(F)ccc(OCc2ccoc2)c1F

Resp:
1. < 8 µg/mL
2. < 8 µg/mL
3. 16 to 64 µg/mL

Could you tell me MIC for each of these compounds? They are listed below.
1. CC(C)(C)c1ccc(-c2noc(COc3ccc(F)c(C(N)=O)c3F)n2)cc1
2. CCCCC#CCCOc1cccc(C(N)=O)c1 [Example 59, 3-(3-Octynyloxy)benzenecarboxamide]
3. COC(=O)CCCOc1cccc(C(N)=O)c1
4. NC(=O)c1c(F)ccc(OCc2nc3cc(Cl)ncc3s2)c1F

Resp:
< 8 µg/mL
16 to 64 µg/mL
> 64 µg/mL
< 8 µg/mL

----------
Tested on: Staphylococcus aureus ATCC29213
TEST: Minimum Inhibitory Concentration (MIC) testing, broth microdilution, Staphylococcus aureus
Type: cell-based
EXPERIMENTAL_SETUP: Staphylococcus aureus ATCC29213; read-out: Staphylococcus aureus MICs Activity
QUANTITY_MEASURED: MIC

Check out these entries, answers already filled in.
Cc1ccc2nc(COc3ccc(F)c(C(N)=O)c3F)sc2c1    < 8 µg/mL
CCCCCCCCCOc1ccc(F)c(C(N)=O)c1Cl    < 8 µg/mL
COc1ccc(-c2noc(COc3ccc(F)c(C(N)=O)c3F)n2)cc1    < 8 µg/mL
COc1ccc(-c2nc(COc3ccc(F)c(C(N)=O)c3F)cs2)cc1    < 8 µg/mL

Req: Consider the molecule shown here: CCCCCC/C=C/COc1ccc(F)c(C(N)=O)c1 What is its recorded MIC?
Resp: < 8 µg/mL

----------
Field: melting point. Provide a value for each of the molecules that follow.

Check out these entries, answers already filled in.
Cc1ccc(S(=O)(=O)OCCCCCCCCCOc2cccc(C(N)=O)c2)cc1    78 to 80 °C
CC1CC1COc1cccc(C(N)=O)c1 (stereo not shown)    119 to 121 °C
C#CCCCCCCCCCCOc1cccc(C(N)=O)c1 [Example 66, 3-(11-Dodecynyloxy)benzenecarboxamide]    106 to 108 °C
NC(=O)c1cccc(OCCCCC/C=C\c2ccsc2)c1    71 to 73 °C
N#CCOc1ccc(F)c(C(N)=O)c1F    122 to 123 °C

Could you tell me melting point for each of these molecules? They are listed below.
1. NC(=O)c1c(F)ccc(OCc2nc3ccc(OC(F)(F)F)cc3s2)c1F
2. COC(=O)C=CCOc1ccc(F)c(C(N)=O)c1F

Resp:
1: 174 to 175 °C; 2: 122 to 123 °C

----------
Field: MIC. Provide a value for each of the molecules that follow.
System: Staphylococcus aureus ATCC29213
TEST: Minimum Inhibitory Concentration (MIC) testing, broth microdilution, Staphylococcus aureus
Assay type: cell-based
EXPERIMENTAL_SETUP: Staphylococcus aureus ATCC29213; read-out: Staphylococcus aureus MICs Activity

NC(=O)c1c(F)ccc(OCc2nc(-c3ccc(C(F)(F)F)cc3)no2)c1F [Example 243]    < 8 µg/mL

Could you tell me MIC for each of these molecules? They are listed below.
1. NC(=O)c1cccc(OCCCCC/C=C\c2ccsc2)c1 [Example 62]
2. NC(=O)c1cccc(OCCCCO)c1 [Example 42, 3-(4-Hydroxybutoxy)benzenecarboxamide]
3. NC(=O)c1c(F)ccc(OCc2nc(-c3cccc(O)c3)cs2)c1F [Example 334]
4. NC(=O)c1c(F)ccc(OCc2nc(-c3ccc(OC(F)(F)F)cc3)cs2)c1F [Example 320]
5. NC(=O)c1c(F)ccc(OCc2nc3cc(-c4ccccc4N)ccc3s2)c1F [Example 141]
6. N#CCCCCCCCCCOc1cccc(C(N)=O)c1 [Example 93, 3-[(9-Cyanononyl)oxy]benzenecarboxamide]

Resp:
1. < 8 µg/mL
2. 16 to 64 µg/mL
3. < 8 µg/mL
4. < 8 µg/mL
5. < 8 µg/mL
6. 16 to 64 µg/mL

----------
Tested on: Staphylococcus aureus ATCC29213
TEST: Minimum Inhibitory Concentration (MIC) testing, broth microdilution, Staphylococcus aureus
Format: cell-based
EXPERIMENTAL_SETUP: Staphylococcus aureus ATCC29213; read-out: Staphylococcus aureus MICs Activity
QUANTITY_MEASURED: MIC

CC(=O)OCCCCCOc1cccc(C(N)=O)c1    > 64 mg/L
NC(=O)c1c(F)ccc(OCc2nc(-c3ccc(Cl)cc3)c(Br)s2)c1F    < 8 mg/L
NC(=O)c1c(F)ccc(OCc2ccc3ccccc3n2)c1F    16 to 64 mg/L
Cc1ccccc1-c1nc(COc2ccc(F)c(C(N)=O)c2F)sc1Br    < 8 mg/L
CCCCCCOc1cccc(C(N)=O)c1F [Example 165, 2-Fluoro-3-Hexoxy-benzamide]    < 8 mg/L

Could you tell me MIC for each of these compounds? They are listed below.
1. NC(=O)c1c(F)ccc(OCc2nc3ccccc3s2)c1F
2. CC/C=C\CCCCCOc1ccc(F)c(C(N)=O)c1F

Resp:
["< 8 mg/L", "< 8 mg/L"]

Could you tell me MIC for each of these compounds? They are listed below.
1. COc1ccc(-c2nc(COc3ccc(F)c(C(N)=O)c3F)sc2-c2ccccn2)cc1
2. CC(C)(C)c1nc(CCCOc2cccc(C(N)=O)c2)c(C(F)(F)F)o1
3. Cc1noc(C)c1-c1nc(COc2ccc(F)c(C(N)=O)c2F)no1
4. CCCCC#CCCCOc1cccc(C(N)=O)c1 [Example 32, 3-(4-Nonynyloxy)benzenecarboxamide]
5. COc1ccc(-c2nc(COc3ccc(F)c(C(N)=O)c3F)sc2-c2cccc(N)c2)cc1
6. NC(=O)c1c(F)ccc(OCc2nc3cc([N+](=O)[O-])ccc3o2)c1F

Resp:
1: < 8 mg/L; 2: 16 to 64 mg/L; 3: > 64 mg/L; 4: 16 to 64 mg/L; 5: < 8 mg/L; 6: 16 to 64 mg/L

Could you tell me MIC for each of these compounds? They are listed below.
1. CC/C=C\CC/C=C/COc1cccc(C(N)=O)c1
2. COC(=O)C=CCOc1ccc(F)c(C(N)=O)c1F
3. Cc1cccc(COc2ccc(F)c(C(N)=O)c2F)n1
4. NC(=O)c1c(F)ccc(OCc2nc3cccc(Cl)c3s2)c1F
5. NC(=O)c1c(F)ccc(OCc2nc(-c3ccc(Cl)cc3)cs2)c1Cl
6. COc1ccc(-c2nc(COc3ccc(F)c(C(N)=O)c3F)sc2C#N)cc1

Resp:
< 8 mg/L
> 64 mg/L
16 to 64 mg/L
< 8 mg/L
< 8 mg/L
< 8 mg/L

Entry source: patent US8088791B2
